Give measured pIC50 for each item. Keep answers brief.
Molecular target: Receptor-type tyrosine-protein kinase FLT3 (Homo sapiens)
Sequence (P36888 whole entry): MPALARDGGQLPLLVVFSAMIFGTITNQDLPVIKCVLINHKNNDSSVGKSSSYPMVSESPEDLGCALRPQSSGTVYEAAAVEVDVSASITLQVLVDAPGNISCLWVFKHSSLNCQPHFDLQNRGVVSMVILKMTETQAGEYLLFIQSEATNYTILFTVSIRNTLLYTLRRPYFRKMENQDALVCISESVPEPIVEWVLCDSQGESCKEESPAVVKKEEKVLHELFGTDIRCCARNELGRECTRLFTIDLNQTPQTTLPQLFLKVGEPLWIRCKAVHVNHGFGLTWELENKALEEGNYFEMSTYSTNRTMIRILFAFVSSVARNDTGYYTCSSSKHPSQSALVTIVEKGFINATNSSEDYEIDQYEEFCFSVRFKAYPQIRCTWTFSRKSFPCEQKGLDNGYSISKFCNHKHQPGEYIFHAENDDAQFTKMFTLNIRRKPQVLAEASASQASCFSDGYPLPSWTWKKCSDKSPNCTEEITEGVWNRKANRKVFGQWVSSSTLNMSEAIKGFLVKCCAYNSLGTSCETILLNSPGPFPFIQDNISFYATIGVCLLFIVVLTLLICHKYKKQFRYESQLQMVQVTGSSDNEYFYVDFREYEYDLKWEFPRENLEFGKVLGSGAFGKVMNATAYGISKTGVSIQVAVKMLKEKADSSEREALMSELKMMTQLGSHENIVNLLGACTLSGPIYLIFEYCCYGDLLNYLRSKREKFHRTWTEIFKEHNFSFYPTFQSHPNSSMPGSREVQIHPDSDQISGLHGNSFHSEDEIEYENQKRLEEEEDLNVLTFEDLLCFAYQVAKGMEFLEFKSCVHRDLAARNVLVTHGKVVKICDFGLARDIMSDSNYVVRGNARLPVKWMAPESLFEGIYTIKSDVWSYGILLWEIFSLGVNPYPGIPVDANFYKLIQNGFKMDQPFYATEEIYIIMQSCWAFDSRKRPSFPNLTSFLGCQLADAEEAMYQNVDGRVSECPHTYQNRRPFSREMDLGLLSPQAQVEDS
Answers are plain numbers, as −log10 of the molar value.

Check out these entries, answers already filled in.
> print(dat)
                                   molecule  numeric.value
1  C=CC(=O)Nc1cccc(-n2c(=O)cnc3cnc(Nc4ccc(N5CCCC5)cc4)nc32)c1           5.82
2  C=CC(=O)Nc1cccc(-n2c(=O)cnc3cnc(Nc4ccc(N5CCN(C)CC5)cc4)nc32)c1           6.51
3  C=CC(=O)Nc1ccc(-n2c(=O)cnc3cnc(Nc4ccc(OC)cc4)nc32)cc1           6.97

Return reported pIC50 values for all items listed beneath this line.
1. C=CC(=O)Nc1cccc(-n2c(=O)cnc3cnc(Nc4ccc(N5CCOCC5)cc4)nc32)c1
2. C=CC(=O)Nc1cccc(-n2c(=O)cnc3cnc(Nc4ccc(OC)cc4)nc32)c1
3. C=CC(=O)Nc1ccc(-n2c(=O)cnc3cnc(Nc4ccc(N5CCOCC5)cc4)nc32)cc1
4. C=CC(=O)Nc1cccc(-n2c(=O)cnc3cnc(Nc4ccc(N5CCCCC5)cc4)nc32)c1
5. COc1ccc(Nc2ncc3ncc(=O)n(-c4cccc(N)c4)c3n2)cc1
6. C=CC(=O)Nc1cccc(-n2c(=O)cnc3cnc(Nc4ccccc4)nc32)c1

5.94
5.73
6.76
5.76
7.47
5.53

---

Test: AUC (0 to infinity) in overnight fasted Sprague-Dawley rat plasma at 1 mg/kg, iv up to 24 hrs by LC-MS/MS analysis
Type: ADME, organism-based
Design: dose 1 mg/kg, route intravenous, time infinity
Endpoint: AUC(0-inf)

Quick one: give measured AUC(0-inf) for Cc1cc(Nc2ncc3ncc(=O)n(-c4ccc(N)cc4)c3n2)ccc1N1CCN(C)CC1
119 ng·h/mL

---

Test: Clearance in overnight fasted Sprague-Dawley rat plasma at 1 mg/kg, iv up to 24 hrs by LC-MS/MS analysis
Format: ADME, organism-based
Endpoint: clearance

Quick one: give measured clearance for Cc1cc(Nc2ncc3ncc(=O)n(-c4ccc(N)cc4)c3n2)ccc1N1CCN(C)CC1
142 mL/min/kg

---

Give measured IC50 for each item. Keep answers brief.
Tested on: WI-38
Assay: cells
Conditions: Homo sapiens, WI-38, 72 h
Description: Antiproliferative activity against human WI38 cells after 72 hrs by SRB assay

> print(dat)
                                   molecule   result
1  C=CC(=O)Nc1cccc(-n2c(=O)cnc3cnc(Nc4ccc(Cl)cc4)nc32)c1  > 10 µM

Return reported IC50 values for all items listed beneath this line.
1. C=CC(=O)Nc1cccc(-n2c(=O)cnc3cnc(Nc4ccc(CC(N)=O)cc4)nc32)c1
2. COc1ccc(Nc2ncc3ncc(=O)n(-c4ccc(N)cc4)c3n2)cc1Cl
3. CN1CCN(c2ccc(Nc3ncc4ncc(=O)n(-c5cccc(N)c5)c4n3)cc2)CC1
4. C=CC(=O)Nc1ccc(-n2c(=O)cnc3cnc(Nc4ccc(N5CCOCC5)cc4)nc32)cc1
5. C=CC(=O)Nc1cccc(-n2c(=O)cnc3cnc(Nc4ccc(N(CC)CC)cc4)nc32)c1
6. C=CC(=O)Nc1cccc(-n2c(=O)cnc3cnc(Nc4ccc(OC)cc4)nc32)c1
7. C=CC(=O)Nc1cccc(-n2c(=O)cnc3cnc(Nc4ccc(N5CCCCC5)cc4)nc32)c1

> 10 µM
> 10 µM
> 10 µM
> 10 µM
> 10 µM
8.71 µM
> 10 µM

Quick one: give measured IC50 for C=CC(=O)Nc1cccc(-n2c(=O)cnc3cnc(Nc4ccc(N5CCN(C)CC5)cc4OC)nc32)c1
8.24 µM
